# System: TE-15 (Esophageal Squamous Cell Carcinoma);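 also: after 72 h of two-drug dosing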
# experimental details: Bliss excess, mean over the matrix (fraction); higher = more synergy
quantity: Bliss excess
Number only, please.

{"molecule": "CS(=O)(=O)CCNCc1ccc(-c2ccc3ncnc(Nc4ccc(OCc5cccc(F)c5)c(Cl)c4)c3c2)o1 [Lapatinib] + C[C@@H](Oc1cc(-c2cnn(C3CCNCC3)c2)cnc1N)c1c(Cl)ccc(F)c1Cl [Crizotinib] (first compound max 10 µM, 7x7, partner max 10 µM)", "target or test system": "TE-15 (Esophageal Squamous Cell Carcinoma)", "measured value": -0.0148}

Summary for this molecule, Cc1c2c(nn1C)CSCc1cc(n(C)n1)CSc1cc(c3ccccc3c1)OCCCc1c(C(=O)O)n(C)c3c-2c(Cl)ccc13 [AZD5991] + Nc1ccn([C@@H]2O[C@H](CO)[C@@H](O)C2(F)F)c(=O)n1 [Gemcitabine] (first compound max 1 µM, 7x7, partner max 0.3 µM) : Bliss excess is 0
